Molecular target: T1, GST-hVEGF121 (human, UniProt P15692-9 27-147)
T1 construct: plate coating of the VEGF ELISAs; also called human VEGF; not shown: glutathione S-transferase (GST) fusion partner
T1 sequence (looked up): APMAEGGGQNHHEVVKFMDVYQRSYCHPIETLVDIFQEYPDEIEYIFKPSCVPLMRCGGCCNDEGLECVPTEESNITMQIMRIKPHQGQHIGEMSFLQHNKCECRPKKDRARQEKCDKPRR
Assay: ELISA, coated GST-hVEGF
value_kind: EC50 (nM)
Report the figure in nM without appending any unit label.

Nb-VV6 (VHH, Bivalent monospecific tandem VHH for VEGF, hinge spacer with cysteines replaced by alanines; with c-myc and histidine tag) QVQLVESGGGLVQPGGSLRLSCAASGNSAEDRLYNSYTWFRQAPGQGLEAVAAISSHFSAGLTYYADSVKGRFTISRDNSKNTLYLQMNSLRAEDTAVYYCEITSHASHNDAWSTPRTVWGQGTLVTVSSAHHSEDPSSKAPKAPAQVQLVESGGGLVQPGGSLRLSCAASGNSAQDRLYNSYTWFRQAPGQGLEAVAAISSHFSAGLTYYADSVKGRFTISRDNSKNTLYLQMNSLRAEDTAVYYCEITSHASHNDAWSTPRTVWGQGTLVTVSSAAAGSEQKLISEEDLNSHHHHHH :: 1.9
Nb-V1 (VHH, carries the C-terminal c-myc tracer peptide and histidine tag; also called VHH Nb-V1) VHH: QVQLVESGGGLVQPGGSLRLSCAASGNSAEDRLYNSYTWFRQAPGQGLEAVAAISSHFSAGLTYYADSVKGRFTISRDNSKNTLYLQMNSLRAEDTAVYYCEITSHASHNDAWSTPRTVWGQGTLVTVSS :: 4.45

Pending binder:
Prompt: // returns reported EC50 for input Nb-VF3 (bispecific antibody, Bispecific tandem VHH (VEGF and bFGF); with c-myc and histidine tag) QVQLVESGGGLVQPGGSLRLSCAASGNSAEDRLYNSYTWFRQAPGQGLEAVAAISSHFSAGLTYYADSVKGRFTISRDNSKNTLYLQMNSLRAEDTAVYYCEITSHASHNDAWSTPRTVWGQGTLVTVSSAHHSEDPSSKAPKAPAQVQLVESGGGLVQPGGSLRLSCAASGTEDGRLLTLGGSWFRQAPGQGLEAVAAIGAGDRGGATYYADSVKGRFTISRDNSKNTLYLQMNSLRAEDTAVYYCTALYERQPQLAATKVARKWGQGTLVTVSSAAAGSEQKLISEEDLNSHHHHHH
Response: 4.49
